Molecular target: Neutrophil elastase (Homo sapiens)
Assay: Compound was evaluated for its inhibitory activity against elastase at 100 uM concentration of substrate
Design: scale not given: the % may be the effect or the level left
Where a SMILES comes first, the peptide text is derived from it. The star is where a group is joined. AMC = Cc1cc(=O)oc2cc(N*)ccc12; MeOSuc = COC(=O)CCC(=O)*
Measurement Name: Control (%)

Compound	Assay Result
CC(=O)N[C@@H](Cc1ccccc1)C(=O)N[C@@H](CCC(=O)O)C(=O)N[C@H](C(=O)Nc1ccc2c(C)cc(=O)oc2c1)C(C)C (Ac-Phe-Glu-Val-{AMC})	1

[I] COC(=O)CCC(=O)N[C@@H](C)C(=O)N[C@@H](C)C(=O)N1CCC[C@H]1C(=O)N[C@H](C(=O)Nc1ccc2c(C)cc(=O)oc2c1)C(C)C (MeOSuc-AAPV-{AMC})
[II] CC(=O)N[C@@H](Cc1ccccc1)C(=O)N[C@H](C(=O)N[C@H](C(=O)Nc1ccc2c(C)cc(=O)oc2c1)C(C)C)[C@@H](C)O (Ac-Phe-Thr-Val-{AMC})
[III] CC(=O)N[C@@H](Cc1ccccc1)C(=O)N1CCC[C@H]1C(=O)N[C@@H](C)C(=O)Nc1ccc2c(C)cc(=O)oc2c1 (Ac-Phe-Pro-Ala-{AMC})
[IV] CC(=O)N[C@@H](Cc1ccccc1)C(=O)N1CCC[C@H]1C(=O)N[C@H](C(=O)Nc1ccc2c(C)cc(=O)oc2c1)C(C)C (Ac-Phe-Pro-Val-{AMC})
Rank items: key Control, increasing. Sort the labels as requested; that list is your answer. III, II, IV, I
